- System: HEp-2 culture
- protocol.text: Cytotoxicity measurement
- Assay type: cell-based
- test.parameters: HEp-2 culture (PIV-3 columns); MTT, 24 h
result.type: CC50 (µM)

smi: O=c1[nH]c(=O)n([C@@H]2O[C@H](CO)[C@@H](O)[C@@H]2O)cc1C#Cc1ccc2c3cccc4cccc(c5cccc1c52)c43
result.number: 998

====

- protocol.text: Cytotoxicity measurement
- Type: cell-based
- test.parameters: dog, MDCK cells
result.type: CC50 at 24 h (µM)

smi: CC(C)(C)C(=O)OCn1c(=O)c(C#Cc2ccc3c4cccc5cccc(c6cccc2c63)c54)cn(CC(=O)O)c1=O
result.type: CC50 at 24 h
measurement.unit: µM
result.number: 34
--
smi: O=c1[nH]c(=O)n([C@@H]2O[C@H](CO)[C@@H](O)[C@H]2O)cc1C#Cc1ccc2c3cccc4cccc(c5cccc1c52)c43
result.type: CC50 at 24 h
measurement.unit: µM
result.number: 658
--
smi: O=c1[nH]c(=O)n([C@H]2C[C@H](O)[C@@H](CO)O2)cc1C#Cc1ccc2c3cccc4cccc(c5cccc1c52)c43
result.type: CC50 at 24 h
measurement.unit: µM
result.number: 492

====

- System: HEp-2 culture
- protocol.text: Cytotoxicity measurement
- Format: cell-based
- test.parameters: HEp-2 culture (RSV columns); MTT, 24 h

smi: O=c1[nH]c(=O)n([C@@H]2O[C@H](CO)[C@@H](O)[C@@H]2O)cc1C#Cc1ccc2c3cccc4cccc(c5cccc1c52)c43
measurement.unit: µM
CC50: 998
